Tested on: ryegrass, Italian (Lolium multiflorum)
experiment.notes: Test A preemergence, Italian ryegrass
Format: in vivo
condition.context: 500 g ai/ha, 0 to 100 scale, 0 is no effect, 100 is complete control
Mark Fulfilled only when Ryegrass, Italian plant response rating stays strictly below 30. Values equal to the cut-off are Not fulfilled.

INSERT INTO results (compound, tested_target, category) VALUES
  ('Nc1nc(NC(c2cc3ccccc3o2)C2CC2)ncc1C(F)(F)F (centres unmarked) [Compound 89]', 'ryegrass, Italian (Lolium multiflorum)', 'Fulfilled'),
  ('CC[C@@H](Nc1ncc(C(F)(F)F)c(N)n1)c1cc2ccccc2s1', 'ryegrass, Italian (Lolium multiflorum)', 'Not fulfilled'),
  ('C[C@@H](Nc1ncc(C(F)(F)F)c(N)n1)c1cc2c(F)cccc2o1', 'ryegrass, Italian (Lolium multiflorum)', 'Not fulfilled'),
  ('CCC(Nc1ncc(C(F)(F)F)c(N)n1)c1coc2ccccc12 (racemic)', 'ryegrass, Italian (Lolium multiflorum)', 'Fulfilled');

###

Test system: ryegrass, Italian (Lolium multiflorum)
experiment.notes: Test A postemergence, Italian ryegrass
Format: in vivo
condition.context: 31 g ai/ha, 0 to 100 scale, 0 no effect, 100 complete control
property.name: Plant response rating, Ryegrass, Italian

INSERT INTO results (compound, recorded_result) VALUES
  ('C[C@@H](Nc1ncc(C(F)(F)F)c(N)n1)c1cc2c(Cl)cccc2s1 [Compound 116]', 30),
  ('C[C@@H](Nc1ncc([S+](C)[O-])c(N)n1)c1cc2ccccc2s1 (stereo partly drawn) [Compound 110]', 0),
  ('CC(F)c1nc(N[C@H](C)c2cc3ccccc3s2)nc(N)c1C(F)(F)F (stereo partly drawn) [Compound 108]', 0),
  ('C[C@@H](Nc1ncc(C(F)(F)F)c(N)n1)c1cc2c(F)ccc(F)c2s1 [Compound 114]', 0),
  ('Cc1cccc2sc([C@@H](C)Nc3ncc(C(F)(F)F)c(N)n3)cc12 [Compound 115]', 30),
  ('CC(F)c1nc(N[C@H](C)c2cc3ccccc3o2)nc(N)c1C(F)(F)F (stereo partly drawn) [Compound 112]', 0),
  ('C[C@@H](Nc1nc(N)c(C(F)(F)F)c(C(F)F)n1)c1cc2ccccc2s1 [Compound 109]', 0),
  ('C[C@@H](Nc1nc(N)c(C(F)(F)F)c(C(F)F)n1)c1cc2ccccc2o1 [Compound 111]', 0),
  ('C[C@@H](Nc1ncc(C(F)(F)F)c(N)n1)c1cc2ccccc2[s+]1[O-] (stereo partly drawn) [Compound 113]', 0);

###

System: kochia (Kochia scoparia)
experiment.notes: Test A postemergence, kochia
Assay type: in vivo
condition.context: 500 g ai/ha, 0 to 100 scale, 0 is no effect, 100 is complete control
property.name: Kochia plant response rating

INSERT INTO assay_data (compound, tested_target, recorded_result) VALUES
  ('CC[C@H](Nc1ncc(C(F)(F)F)c(N)n1)c1cc2ccccc2s1', 'kochia (Kochia scoparia)', 50),
  ('CC[C@@H](Nc1ncc(C(F)(F)F)c(N)n1)c1cc2ccccc2s1', 'kochia (Kochia scoparia)', 90),
  ('CC(Nc1ncc(C(F)(F)F)c(N)n1)c1coc2cc(F)ccc12 (racemic)', 'kochia (Kochia scoparia)', 90),
  ('C[C@@H](Nc1ncc(C(F)(F)F)c(N)n1)c1cc2ccc(F)cc2s1', 'kochia (Kochia scoparia)', 90),
  ('CC(C)[C@@H](Nc1ncc(C(F)(F)F)c(N)n1)c1cc2ccccc2s1', 'kochia (Kochia scoparia)', 60),
  ('CCC(Nc1ncc(C(F)(F)F)c(N)n1)c1coc2ccccc12 (racemic)', 'kochia (Kochia scoparia)', 90),
  ('CC[C@H](Nc1ncc(C(F)(F)F)c(N)n1)c1cc2ccc(F)cc2s1', 'kochia (Kochia scoparia)', 0),
  ('C[C@H](Nc1ncc(C(F)(F)F)c(N)n1)c1cc2ccc(F)cc2s1', 'kochia (Kochia scoparia)', 60),
  ('C[C@H](Nc1ncc(C(F)(F)F)c(N)n1)c1csc2ccccc12', 'kochia (Kochia scoparia)', 0);

###

Reported Plant response rating, Kochia is given for each of the following molecules.
Tested on: kochia (Kochia scoparia)
experiment.notes: Test A preemergence, kochia
Format: in vivo
condition.context: 500 g ai/ha, 0 to 100 scale
property.name: Plant response rating, Kochia

INSERT INTO results (molecule, property_name, recorded_result) VALUES
  ('C[C@@H](Nc1ncc(C(F)(F)F)c(N)n1)C1Cc2ccccc2C1 [Compound 13]', 'Plant response rating, Kochia', 100),
  ('CC(COc1cc(Cl)cc(Cl)c1)Nc1ncc(C(F)(F)F)c(N)n1 (stereo not drawn) [Compound 35]', 'Plant response rating, Kochia', 40),
  ('C[C@@H](Nc1ncc(C(F)(F)F)c(N)n1)c1cc2cc(F)ccc2o1 [Compound 9]', 'Plant response rating, Kochia', 70),
  ('C[C@H](Nc1ncc(C(F)(F)F)c(N)n1)C1Cc2ccccc2C1 [Compound 12]', 'Plant response rating, Kochia', 0),
  ('CC(COc1cccc(F)c1)Nc1ncc(C(F)(F)F)c(N)n1 (stereo not drawn) [Compound 37]', 'Plant response rating, Kochia', 0),
  ('Cc1cc2oc([C@@H](C)Nc3ncc(C(F)(F)F)c(N)n3)cc2cc1F [Compound 31]', 'Plant response rating, Kochia', 90),
  ('CCc1ccc2oc([C@@H](C)Nc3ncc(C(F)(F)F)c(N)n3)cc2c1 [Compound 17]', 'Plant response rating, Kochia', 0),
  ('CC(Nc1ncc(C(F)(F)F)c(N)n1)C1Cc2ccccc2C1 (racemic) [Compound 6]', 'Plant response rating, Kochia', 100),
  ('CCC(Nc1ncc(C(F)(F)F)c(N)n1)c1cc2ccccc2o1 (racemic) [Compound 28]', 'Plant response rating, Kochia', 90),
  ('C[C@@H](Nc1ncc(C(F)(F)F)c(N)n1)c1cc2cc(F)c(F)cc2o1 [Compounds 30]', 'Plant response rating, Kochia', 30),
  ('Cc1cc(OCC(C)Nc2ncc(C(F)(F)F)c(N)n2)ccc1F (stereo not drawn) [Compound 38]', 'Plant response rating, Kochia', 60),
  ('CC(COc1cc(F)c(F)c(F)c1)Nc1ncc(C(F)(F)F)c(N)n1 (stereo not drawn) [Compound 36]', 'Plant response rating, Kochia', 30),
  ('C[C@@H](Nc1ncc(C(F)(F)F)c(N)n1)c1cc2ccc(Cl)cc2o1 [Compound 29]', 'Plant response rating, Kochia', 80),
  ('CC(Nc1ncc(C(F)(F)F)c(N)n1)c1csc2ccccc12 (stereo not drawn) [Compound 40]', 'Plant response rating, Kochia', 60),
  ('C[C@@H](Nc1ncc(C(F)(F)F)c(N)n1)c1cc2ccccc2s1 [Compound 4]', 'Plant response rating, Kochia', 100),
  ('CC(COc1cc(F)cc(F)c1)Nc1ncc(C(F)(F)F)c(N)n1 (stereo not drawn) [Compound 33]', 'Plant response rating, Kochia', 30),
  ('CCC(Nc1ncc(C#N)c(N)n1)c1cc2ccccc2o1 (racemic) [Compound 20]', 'Plant response rating, Kochia', 30),
  ('Cc1ccc2oc([C@@H](C)Nc3ncc(C(F)(F)F)c(N)n3)cc2c1 [Compound 10]', 'Plant response rating, Kochia', 0);

###

Reported Plant response rating, Ryegrass, Italian is given for each of the following molecules.
Test system: ryegrass, Italian (Lolium multiflorum)
experiment.notes: Test A postemergence, Italian ryegrass
Assay type: in vivo
condition.context: 125 g ai/ha, 0 to 100 scale, 0 no effect, 100 complete control
property.name: Plant response rating, Ryegrass, Italian

INSERT INTO measurements (molecule, tested_target, property_name, recorded_result) VALUES
  ('C[C@@H](Nc1ncc(C(F)(F)F)c(N)n1)c1coc2cc(Cl)ccc12', 'ryegrass, Italian (Lolium multiflorum)', 'Plant response rating, Ryegrass, Italian', 30),
  ('CC[C@H](Nc1ncc(C(F)(F)F)c(N)n1)c1coc2ccccc12', 'ryegrass, Italian (Lolium multiflorum)', 'Plant response rating, Ryegrass, Italian', 0),
  ('C[C@H](Nc1ncc(C(F)(F)F)c(N)n1)c1coc2ccc(F)cc12', 'ryegrass, Italian (Lolium multiflorum)', 'Plant response rating, Ryegrass, Italian', 0),
  ('C[C@@H](Nc1nc(N)c(C(F)(F)F)c(C(F)(F)F)n1)c1cc2ccccc2s1', 'ryegrass, Italian (Lolium multiflorum)', 'Plant response rating, Ryegrass, Italian', 0),
  ('Cc1nc(NC(C)c2coc3ccccc23)nc(N)c1C(F)(F)F (centres unmarked)', 'ryegrass, Italian (Lolium multiflorum)', 'Plant response rating, Ryegrass, Italian', 0),
  ('C[C@H](Nc1ncc(C(F)(F)F)c(N)n1)c1cc2c(F)cccc2o1', 'ryegrass, Italian (Lolium multiflorum)', 'Plant response rating, Ryegrass, Italian', 0),
  ('C[C@@H](Nc1ncc(C(F)(F)F)c(N)n1)c1cc2ccc(F)cc2s1', 'ryegrass, Italian (Lolium multiflorum)', 'Plant response rating, Ryegrass, Italian', 0),
  ('CC(Nc1ncc(C(F)(F)F)c(N)n1)c1coc2cc(F)ccc12 (racemic)', 'ryegrass, Italian (Lolium multiflorum)', 'Plant response rating, Ryegrass, Italian', 30),
  ('CC(Nc1ncc(C(F)(F)F)c(N)n1)c1coc2cc(Cl)ccc12 (racemic)', 'ryegrass, Italian (Lolium multiflorum)', 'Plant response rating, Ryegrass, Italian', 0),
  ('Cc1cccc2sc([C@@H](C)Nc3ncc(C(F)(F)F)c(N)n3)cc12', 'ryegrass, Italian (Lolium multiflorum)', 'Plant response rating, Ryegrass, Italian', 50),
  ('Cc1ccc2c(C(C)Nc3ncc(C(F)(F)F)c(N)n3)coc2c1 (centres unmarked)', 'ryegrass, Italian (Lolium multiflorum)', 'Plant response rating, Ryegrass, Italian', 50),
  ('CC(Nc1nc(N)c(C(F)(F)F)c(C(F)(F)F)n1)C1Cc2ccccc2C1 (racemic)', 'ryegrass, Italian (Lolium multiflorum)', 'Plant response rating, Ryegrass, Italian', 0),
  ('C[C@H](Nc1ncc(C(F)(F)F)c(N)n1)c1cc2ccccc2n1C', 'ryegrass, Italian (Lolium multiflorum)', 'Plant response rating, Ryegrass, Italian', 0),
  ('C[C@H](Nc1ncc(C(F)(F)F)c(N)n1)c1cc2ccc(F)cc2s1', 'ryegrass, Italian (Lolium multiflorum)', 'Plant response rating, Ryegrass, Italian', 0),
  ('C[C@@H](Nc1nc(N)c(C(F)(F)F)c(C(F)F)n1)c1cc2ccccc2o1', 'ryegrass, Italian (Lolium multiflorum)', 'Plant response rating, Ryegrass, Italian', 0),
  ('CC[C@@H](Nc1ncc(C(F)(F)F)c(N)n1)c1cc2ccc(F)cc2o1', 'ryegrass, Italian (Lolium multiflorum)', 'Plant response rating, Ryegrass, Italian', 0),
  ('C[C@H](Nc1nc(N)c(C(F)(F)F)c(C(F)(F)F)n1)c1cc2ccccc2s1', 'ryegrass, Italian (Lolium multiflorum)', 'Plant response rating, Ryegrass, Italian', 0),
  ('C[C@@H](Nc1ncc(C#N)c(N)n1)c1cc2ccccc2s1', 'ryegrass, Italian (Lolium multiflorum)', 'Plant response rating, Ryegrass, Italian', 0),
  ('CC(Nc1ncc([N+](=O)[O-])c(N)n1)c1cc2ccccc2s1 (centres unmarked)', 'ryegrass, Italian (Lolium multiflorum)', 'Plant response rating, Ryegrass, Italian', 0),
  ('CC(Nc1ncc(S(C)(=O)=O)c(N)n1)c1cc2ccccc2s1 (centres unmarked)', 'ryegrass, Italian (Lolium multiflorum)', 'Plant response rating, Ryegrass, Italian', 0),
  ('CC(Nc1nc(N)c(C(F)(F)F)c(C(F)(F)F)n1)c1coc2ccccc12 (centres unmarked)', 'ryegrass, Italian (Lolium multiflorum)', 'Plant response rating, Ryegrass, Italian', 0),
  ('CCC(Nc1ncc(C(F)(F)F)c(N)n1)c1coc2ccccc12 (racemic)', 'ryegrass, Italian (Lolium multiflorum)', 'Plant response rating, Ryegrass, Italian', 20),
  ('C[C@@H](Nc1ncc(C(F)(F)F)c(N)n1)c1cc2c(Cl)cccc2s1', 'ryegrass, Italian (Lolium multiflorum)', 'Plant response rating, Ryegrass, Italian', 30),
  ('CC(Nc1ncc(C(F)(F)F)c(N)n1)c1cc2c(Cl)cccc2o1 (centres unmarked)', 'ryegrass, Italian (Lolium multiflorum)', 'Plant response rating, Ryegrass, Italian', 40),
  ('Cc1ccc2c([C@@H](Nc3ncc(C(F)(F)F)c(N)n3)C3CC3)coc2c1', 'ryegrass, Italian (Lolium multiflorum)', 'Plant response rating, Ryegrass, Italian', 0),
  ('CC[C@@H](Nc1ncc(C(F)(F)F)c(N)n1)c1cc2ccccc2s1', 'ryegrass, Italian (Lolium multiflorum)', 'Plant response rating, Ryegrass, Italian', 40),
  ('C[C@@H](Nc1ncc([S+](C)[O-])c(N)n1)c1cc2ccccc2s1 (some centres unmarked)', 'ryegrass, Italian (Lolium multiflorum)', 'Plant response rating, Ryegrass, Italian', 0),
  ('CC(Nc1ncc(C(F)(F)F)c(N)n1)c1cc2ccc(F)c(F)c2s1 (centres unmarked)', 'ryegrass, Italian (Lolium multiflorum)', 'Plant response rating, Ryegrass, Italian', 0),
  ('CC(Nc1ncc(C(F)(F)F)c(N)n1)c1cc2c(Br)cccc2o1 (centres unmarked)', 'ryegrass, Italian (Lolium multiflorum)', 'Plant response rating, Ryegrass, Italian', 0),
  ('Nc1nc(NC(c2coc3ccccc23)C2CC2)ncc1C(F)(F)F (racemic)', 'ryegrass, Italian (Lolium multiflorum)', 'Plant response rating, Ryegrass, Italian', 50),
  ('C[C@@H](Nc1nc(N)c(C(F)(F)F)c(C(F)(F)F)n1)C1Cc2ccccc2C1', 'ryegrass, Italian (Lolium multiflorum)', 'Plant response rating, Ryegrass, Italian', 0),
  ('Nc1nc(N[C@@H](c2cc3ccccc3s2)C2CC2)ncc1C(F)(F)F', 'ryegrass, Italian (Lolium multiflorum)', 'Plant response rating, Ryegrass, Italian', 0),
  ('CC(F)c1nc(N[C@H](C)c2cc3ccccc3s2)nc(N)c1C(F)(F)F (some centres unmarked)', 'ryegrass, Italian (Lolium multiflorum)', 'Plant response rating, Ryegrass, Italian', 50),
  ('CC(Nc1ncc(C(F)(F)F)c(N)n1)c1coc2cccc(F)c12 (racemic)', 'ryegrass, Italian (Lolium multiflorum)', 'Plant response rating, Ryegrass, Italian', 0),
  ('C[C@@H](Nc1ncc(C(F)(F)F)c(N)n1)c1cc2ccccc2[s+]1[O-] (some centres unmarked)', 'ryegrass, Italian (Lolium multiflorum)', 'Plant response rating, Ryegrass, Italian', 0);
